biological target: FGFR1 (UniProt P11362); assay: phosphorylation enrichment, bacterial display (enrichment ratio); higher = better substrate or ligand; peptides without Tyr show the background;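 further: 11-residue human phosphosite peptides and single-mutation variants displayed on the E. coli surface, counted by deep sequencing, each peptide's frequency after selection divided by its frequency in the unselected input library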;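 further: frequency after pTyr selection over input frequency; kinase dosed for 20-30% of maximal phosphorylation in three min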
Sequence (P11362 whole entry, looked up): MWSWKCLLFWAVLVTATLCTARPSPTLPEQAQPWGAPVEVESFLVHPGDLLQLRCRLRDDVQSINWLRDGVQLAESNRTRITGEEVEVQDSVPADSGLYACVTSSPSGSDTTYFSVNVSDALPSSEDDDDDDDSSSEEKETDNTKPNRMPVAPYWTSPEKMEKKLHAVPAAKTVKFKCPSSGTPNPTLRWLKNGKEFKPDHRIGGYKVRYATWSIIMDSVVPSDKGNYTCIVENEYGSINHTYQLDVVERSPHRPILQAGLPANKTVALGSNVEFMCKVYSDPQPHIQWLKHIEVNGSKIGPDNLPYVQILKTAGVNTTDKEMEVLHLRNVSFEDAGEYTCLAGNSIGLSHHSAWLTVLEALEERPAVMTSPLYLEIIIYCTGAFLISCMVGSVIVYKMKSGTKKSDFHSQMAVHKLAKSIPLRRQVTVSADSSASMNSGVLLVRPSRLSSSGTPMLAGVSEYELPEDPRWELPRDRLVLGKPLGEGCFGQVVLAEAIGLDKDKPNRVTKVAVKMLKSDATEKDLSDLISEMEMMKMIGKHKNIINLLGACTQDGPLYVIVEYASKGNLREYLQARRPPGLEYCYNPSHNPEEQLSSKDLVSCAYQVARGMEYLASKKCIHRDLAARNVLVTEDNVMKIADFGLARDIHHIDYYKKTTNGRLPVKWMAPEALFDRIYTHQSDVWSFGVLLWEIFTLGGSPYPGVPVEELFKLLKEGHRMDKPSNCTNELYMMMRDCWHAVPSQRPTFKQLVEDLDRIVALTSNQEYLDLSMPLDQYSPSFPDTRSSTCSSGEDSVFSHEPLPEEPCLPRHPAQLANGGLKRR
Kindly supply the reported phosphorylation enrichment values for the records listed here.
Give bare numbers.

// known answers, use as guide
>>> val("LPEENYQVLCF [ARHGAP1_Y365_R369C]")
8.04
>>> val("YLAAIYPTVGQ [NF1_Y2508_T2507I]")
1.16
>>> val("LVRAFYCERRR [CARD11_Y970]")
0.766
>>> val("EHVMPYAANKN [GRIN2A_Y1431]")
0.361
>>> val("RIGRKCKKVRF [F8_Y442_Y442C]")
1.67

Hi there! I need phosphorylation enrichment for each item below, if you can.
1. FGFPGYQCKHF [TIMP3_Y177_S179C_YF]
2. VTQEPYELYCE [CBL_Y368_Q367P]

[A]
[0.517, 0.554]
